- System Under Test: SARS-CoV-2 Receptor Binding Domain (RBD) protein (SARS-CoV-2)
- Test Method Notes: SPR (Carterra LSA), scFv captured via anti-V5, RBD as analyte, 1:1 fit
Lab note: cut-off is 200000 M⁻¹ s⁻¹. Strictly less in kon is Satisfied. Exactly 200000 M⁻¹ s⁻¹ or more is Not satisfied.

For this binder, is kon lower than 200000 M⁻¹ s⁻¹? COVID19_P11_G03 (scFv, V domains shown) VH: QVQLVQSGAEVKKPGASVKVSCKASGYTFTSYEINWVRQAPGQGLEWMGIINPSDGSSTYAQKFQGRVTMTRDTSTSTVYMELSSLRSEDTAVYYCARDRGYSYDHDQIYYYYGMDVWGQGTTVTVSS VL: DIQMTQSPSSLSASVGDRVTITCRVSQGISSYLNWYQQKPGKAPKLLIYAASILQSGVPSRFSGSGSGTDFTLTISSLQPEDFATYYCQQGYSTPFTFGPGTKVDIKR Satisfied

kon under 200000 M⁻¹ s⁻¹? Item: COVID19_P24_H04 (scFv, V domains shown) VH: QVQLVQSGAEVKKPGASVKVSCKASGYTFTDYHMHWVRQAPGQGLEWMGWMNPNSGNTSYAQKFQGRVTMTRDTSTSTVYMELSSLRSEDTAVYYCAGMGMGRDGYNSRAFDIWGQGTMVTVSS VL: DIQMTQSPSSLSASVGDRVTITCRASQSISTYLNWYQQKPGKAPKLLIYAASTLQSGVPSRFSGSGSGTDFTLTISSLQPEDFATYYCQQSYSMPLTFGQGTKVEIKR Satisfied

Please check: kon for COVID19_P24_A11 (scFv, V domains shown) VH: QVQLVQSGAEVKKPGASVKVSCKASGYTFTENEMHWVRQAPGQGLEWMGIINPSGGSTSYAQKFQGRVTMTRDTSTSTVYMELSSLRSEDTAVYYCARDLMDIVVVPWLGGMDVWGQGTTVTVSS VL: DIQMTQSPSSLSASVGDRVTITCRASQAITNYLAWYQQKPGKAPKLLIYAASSLQSGVPSRFSGSGSGTDFTLTISSLQPEDFATYYCQQYYSYPPTFGQGTKLEIKR , strictly under 200000 M⁻¹ s⁻¹ or not? Satisfied

Please check: kon for COVID19_P24_G09 (scFv, V domains shown) VH: QVQLVQSGAEVKKPGASVKVSCKASGYTFTRYYIHWVRQAPGQGLEWMGIINPSGGSTTYAQKFQGRVTMTRDTSTSTVYMELSSLRSEDTAVYYCAKGAPHDYIWGSYRPDAFDIWGQGTMVTVSS VL: DIQMTQSPSSLSASVGDRVTITCRASENIDSWLAWYQQKPGKAPKLLIYEASTLESGVPSRFSGSGSGTDFTLTISSLQPEDFATYYCHQYLSSPETFGQGTKVEIKR , strictly under 200000 M⁻¹ s⁻¹ or not? Not satisfied

Does the reported kon of COVID19_P11_D08 (scFv, V domains shown) VH: QVQLVQSGAEVKKPGASVKVSCKASGYTFTENEMHWVRQAPGQGLEWMGIINPSGGSTSYAQKFQGRVTMTRDTSTSTVYMELSSLRSEDTAVYYCARDSGVDTATLRYYYYGMDVWGQGTTVTVSS VL: DIQMTQSPSSLSASVGDRVTITCQASQDISKYLNWYQQKPGKAPKLLIYGASTLSDGVPSRFSGSGSGTDFTLTISSLQPEDFATYYCQQGYSTPYSFGQGTKLEIKR stay below 200000 M⁻¹ s⁻¹? Satisfied

In plain terms, does COVID19_P23_F10 (scFv, V domains shown) VH: QVQLVQSGAEVKKPGASVKVSCKASGDTFSNYGISWVRQAPGQGLEWMGWMNPNSGGTNYAQKFQGRVTMTRDTSTSTVYMELSSLRSEDTAVYYCAIGTTVVTPFGYWGQGTLVNVSS VL: EIVMTQSPATLSVSPGERATLSCRASESVSSRYLAWYQQKPGQAPRLLIYGASTRATGIPARFSGSGSGTEFTLTISSLQSEDFAVYYCQQGYKNPPTFGQGTKVEIKR come in under 200000 M⁻¹ s⁻¹ for kon? Satisfied

Just for reference, patent US11021532 is where these values come from.
